test system: IGROV-1; assay: NCI tumour cell line growth inhibition, 48 h
The source made the active and inactive calls. Rule as the data show it: active = GI50 up to about 1.1 µM and inactive = higher.
measurementName: GI50

Example results:
CN1C(=O)C(O)CC1c1ccc(C(F)(F)F)cc1 (stereo not given)	> 100 µM (inactive)
O=S(=O)(c1ccccc1)C(CN1CCCCC1)S(=O)(=O)c1ccccc1	> 100 µM (inactive)
Clc1ccccc1NN(Cc1ccncc1)c1ccccc1Cl	14.6 µM (inactive)

Input: State its GI50 for this molecule: Cn1c(=O)c2c(ncn2CCNC(CO)C(O)c2ccc([N+](=O)[O-])cc2)n(C)c1=O (stereo not given)
Output: > 10 µM (inactive)

Input: Provide GI50 value for the following molecule: "COc1nc2ccc(COc3ccc(C(=O)O)cc3)cc2nc1OC"
Output: > 100 µM (inactive)

Input: Fill in GI50 for record "O=C1/C(=C/c2ccccc2S)N=C(c2ccccc2)N1c1nc2ccc(Sc3ccccc3)cc2[nH]1"
Output: 49.4 µM (inactive)

Input: Name the recorded GI50 of the item "C=CCN1C(=O)/C(=C/c2ccc(Cl)cc2)N=C1SC/C=C/C" in your answer.
Output: 65.5 µM (inactive)

Input: Please supply the value of reported GI50 for the item CC(C)(C)[Si](C)(C)OCC1OC(n2ccc(=O)[nH]c2=O)C(O[Si](C)(C)C(C)(C)C)/C1=N/O (stereo not given)
Output: 4.18 µM (inactive)

Input: Respond only with GI50 recorded for N#CC(C(=O)c1ccccc1F)c1nc2cc(C(F)(F)F)ccc2s1 (stereo not given)
Output: 36.3 µM (inactive)

Input: # return recorded GI50 for entry "NS(=O)(=O)c1ccc(NCc2cccc3c(=O)c4ccc(Cl)cc4oc23)cc1"
Output: 20.2 µM (inactive)

###

Known GI50 of a selection of compounds
test system: BT-549; test: NCI tumour cell line growth inhibition, 48 h
Active and inactive are the calls of the source. Cut-off read from the data, not from the text of the source: active = GI50 up to about 1.1 µM and inactive = higher.

Example compounds with recorded GI50:
CCOC(=O)C(NC(C)=O)(Nc1ccc(F)cc1)C(F)(F)F (centres undefined)	> 100 µM (inactive)
COc1cc(/C=C/C=C2\CC(C)C/C(=C\C=C\c3ccc(O)c(OC)c3)C2=O)ccc1O (centres undefined)	8.61 µM (inactive)

Input: Identify measured GI50 associated with CC(=O)[C@]1(O)Cc2c(O)c3c(c(O)c2[C@@H](OC2CC(N)C(O)C(C)O2)C1)C(=O)c1c(OCc2ccccc2)cccc1C3=O (some centres undefined)
Output: 3.76 µM (inactive)

Input: Note down GI50 recorded for COC(=O)CCC(NC(=O)C(C)NC(=O)COC1C(O)C(OC(=O)CCNc2c3ccccc3nc3cccc([N+](=O)[O-])c23)OC(OCc2ccccc2)C1NC(C)=O)C(N)=O (centres undefined)
Output: > 10 µM (inactive)

Input: Determine its reported GI50: "CC1=CCC[C@H]2[C@](C)(CC3=CC(=O)C(SCC(C)C)=CC3=O)[C@@H](C)CC[C@]12C"
Output: 17.6 µM (inactive)

Input: Answer with the recorded GI50 for the compound listed here: "C[C@@H]1C(=O)C[C@H]2C(C)(C)CCC[C@]2(C)[C@@]1(O)CCc1ccoc1"
Output: > 100 µM (inactive)

Input: Report GI50, nothing else, for this compound: Cn1c(=O)c2c(ncn2CCNC(CO)C(O)c2ccc([N+](=O)[O-])cc2)n(C)c1=O (centres undefined)
Output: > 100 µM (inactive)

Input: Specify GI50 for CC1CCC2C(C)C(=O)OC3OC4(C)CCC1C32OO4 (centres undefined) and stop.
Output: 86.5 µM (inactive)

Input: Given the compound "CC(=O)OC(=C(C#N)C#N)c1nccnc1C(C)=O" , write its reported GI50.
Output: 13.3 µM (inactive)

###

system: SR; assay: NCI tumour cell line growth inhibition, 48 h
Active and inactive are the calls of the source. Cut-off read from the data, not from the text of the source: active = GI50 up to about 1.1 µM and inactive = higher.
measurementName: GI50

CC(=O)OC1CCC2C3CCc4c(C)ccc(OS(=O)(=O)c5ccccc5)c4C3CCC12C (centres undefined)	6.82 µM (inactive)
O=C(Cn1cc(-c2ccccc2)nn1)NC1CCCC1	> 100 µM (inactive)
Cc1oc2c(C)c3oc(=O)cc(C)c3cc2c1CN1C(=O)C2OCCOCCOCCOCCOCCO[C@H]2C1=O (some centres undefined)	> 100 µM (inactive)
Clc1ccccc1NN(Cc1ccncc1)c1ccccc1Cl	13.2 µM (inactive)
O=C1CCC[C@H]2O[C@@H](COCc3ccccc3)C[C@@H]12	> 100 µM (inactive)
Cn1ccnc1Sc1ccc(/C=N/NC(=O)c2ccccc2O)cc1[N+](=O)[O-]	2.27 µM (inactive)
CSc1ccc(C2C(Cl)C(=O)N2NC(=O)c2c(Cl)c(Cl)c(Cl)c(Cl)c2-c2nc3ccccc3[nH]2)cc1 (centres undefined)	2.9 µM (inactive)
c1ccc(CN(Cc2ccccn2)Cn2cccn2)nc1	33.4 µM (inactive)

Input: In one line, give reported GI50 of the entry O=C1NC(N2CCCC(CO)C2)=N/C1=C\c1ccccc1 (centres undefined) .
Output: > 100 µM (inactive)

Input: In one line, give reported GI50 of the entry CCCCC[C@@H]1OCO[C@@]2(C)/C=C(C)\C=C/C(=O)O[C@H]([C@@H](C)[C@@H](O)[C@H](C)[C@@]3(O)C[C@@H](O[C@H]4C[C@@H](O)[C@H](O)[C@@H](C)O4)[C@H](C)[C@@H](C)O3)[C@@H](OC)/C=C\C=C(\C)C[C@@H]1[C@@H]2O (stereo in doubt) .
Output: < 0.005 µM (active)

###

test system: PC-3; test: NCI tumour cell line growth inhibition, 48 h
Active and inactive are the calls of the source. No stated cut-off is given here; in the data, active = GI50 up to about 1.1 µM and inactive = higher.
We begin with a simple list: items and their reported GI50.

COc1ccc(N(CN2C(=O)CCC2C(=O)O)C(C)=O)cc1 (stereo not given)	> 100 µM (inactive)
COc1nc2ccc(COc3ccc(C(=O)O)cc3)cc2nc1OC	71.4 µM (inactive)
Cc1cn(C2CC(n3cc(Cn4cc(Br)c(=O)[nH]c4=O)nn3)C(CO)O2)c(=O)[nH]c1=O (stereo not given)	> 100 µM (inactive)
NS(=O)(=O)c1ccc(NCc2cccc3c(=O)c4ccc(Cl)cc4oc23)cc1	31 µM (inactive)

Input: Identify measured GI50 corresponding to Nc1nc(Cl)c(N)c(NCC2(CO)CC(CCCc3ccccc3)C2)n1 (stereo not given)
Output: 17.9 µM (inactive)

###

system: HOP-92; test: NCI tumour cell line growth inhibition, 48 h
Activity calls are given as the source filed them. Cut-off read from the data, not from the text of the source: active = GI50 up to about 1.1 µM and inactive = higher.
Choose one outcome from this list and give only that: t for active, f for inactive

Reference set, count: 10
O=C(O)c1c(O)c2cc(Br)ccc2oc1=O	f
Oc1ccc(Cl)cc1-c1cc(-c2ccccc2)nc(S)n1	f
COCOCC/C=C/C=O	f
Cc1ccc(C)c(COCCOCn2cc(N3CCOCC3)c(=O)[nH]c2=O)c1	f
O=P(O)(O)C=C=C1CCCCC1	f
CC1(C23CC4CC(CC(C4)C2)C3)n2c(=O)n(-c3ccccc3)c(=O)n2C1(C)C12CC3CC(CC(C3)C1)C2 (configuration not stated)	f
COC(=O)c1sc(C(=O)OC)c2c1C[S+]([O-])C2	f
COc1cccc([C@@H]2C/C(=N\NC(=O)C(=O)N[C@@H](C)c3ccccc3)c3cc4c(cc3N2)OCO4)c1	f
CSc1ccc(C2C(Cl)C(=O)N2NC(=O)c2c(Cl)c(Cl)c(Cl)c(Cl)c2-c2nc3ccccc3[nH]2)cc1 (configuration not stated)	f
NS(=O)(=O)c1ccc(NC(=O)c2cccc3cc4ccccc4nc23)cc1	f

Input: Outcome? CC1(C)OCC2OC3(c4nc(C#N)c(N)o4)OC(C)(C)OC3C2O1 (configuration not stated)
Output: f

Input: For "NCCCN1CCN(CCCNc2ccc3ncn4c5ccccc5c(=O)c2c34)CC1" , what call appears in the results of this test?
Output: f

Input: // return assay outcome for "O=[N+]([O-])c1ccc(Cl)c2c([N+](=O)[O-])cccc12"
Output: f

Input: Which outcome was entered for the compound CC1=CC2C(C(C)C)CC1C1C(=O)OC(=O)C21 (configuration not stated) in this test?
Output: f

Input: Per the assay record, what outcome was assigned to "COc1nc2ccc(COc3ccc(C(=O)O)cc3)cc2nc1OC" ?
Output: f

Input: What outcome does the record of this test show for C=CC1C(OC2OC(CO)C(O)C(O)C2O)OC=C(C(=O)OC)C1CC1CC(=O)CC(CCc2ccc(O)cc2)O1 (configuration not stated) ?
Output: f

Input: Write down the call the test reported for this compound. Item: "CCOC(=O)CSc1[nH]c2nc(C)nc(Cl)c2c1C#N"
Output: f

Input: Record request — test call for "COc1ccc(/C=N/CCC/N=C/c2ccc(OC)cc2O)c(O)c1"
Output: f

Input: Dear colleague, could you share the recorded outcome for "c1ccc(-c2nc3ccccc3n3nnnc23)cc1" when you have a moment?
Output: f

Input: Tell me the recorded outcome of this test for CC(C)(SCc1ccccc1)C(N)C(=O)O (configuration not stated) .
Output: f

Input: Which result was noted for this compound in the test: COC(=O)NC(=O)NC(Cc1ccccc1)NC(=O)OCc1ccccc1 (configuration not stated)
Output: f

Input: Entry COC(=O)CCC(NC(=O)C(C)NC(=O)COC1C(O)C(OC(=O)CCNc2c3ccccc3nc3cccc([N+](=O)[O-])c23)OC(OCc2ccccc2)C1NC(C)=O)C(N)=O (configuration not stated) : call = ?
Output: f

Input: So what was the verdict on "CNS(=O)(=O)NNS(=O)(=O)c1ccc(C)cc1" in this test?
Output: f

Input: Recorded call for "Oc1ccccc1CNCc1nc2ccccc2[nH]1" ?
Output: f

Input: Hello, I am checking results. What call was entered for CC(C)(C)OC(=O)NCCCCC1NC(=O)[C@@H]2Cc3c([nH]c4ccccc34)C(c3ccccc3)N2C1=O (some centres not stated) ?
Output: f

Input: Please state the recorded outcome for this compound: "O=[N+]([O-])c1ccc(O)c(/C=N/c2nc(-c3ccccc3)cs2)c1"
Output: f

Input: Which outcome did this test record for the compound "CCN(CC)C(=S)SNCc1ccc(S(N)(=O)=O)cc1" ?
Output: f

Input: Recorded test call requested for "CC(=O)c1cc(C)n2c1CS[C@@H]2c1ccccc1"
Output: f

Input: Would you mind telling me which call this test gave "CCOC(=O)/C(=N/Nc1ccc(C)cc1)N1C(=S)N(C)N=C(C)C=C1S" ?
Output: f

Input: How did this test come out for "O=C1/C(=C/c2ccccc2S)N=C(c2ccccc2)N1c1nc2ccc(Sc3ccccc3)cc2[nH]1" ?
Output: f

Input: How was "COc1ccc(OC)c2[nH]c(Sc3c([N+](=O)[O-])ncn3C)nc12" classified in this test?
Output: f
